Kd overview
target under test: T1, human serum albumin (human, UniProt P02768 25-609)
T1 construct: also called HSA; human albumin
procedure text: BLI Octet RED96, HSA on AR2G sensors, VHH 100-1.5 nM (column head says nM; values look like M)
Numbers only; they are read as nM.

# binder, Kd, nM
rows = [
    ("SA1_S30K VHH (VHH, Made in E. coli WK6 periplasm; also called SA1_S3OK; SA1_S30K mutant variant) VHH: QVQLQESGGGLVQAGGSLRLSCAASGRNIKEYVMGWFRQAPGKEREFVAAISWSAGNIYYADSVKGRFTISRDNAKNTVHLQMNTLRPEDTAVYYCAAGRYSAWYVAAYEYDYWGQGTQVTVSS", 0.825),
    ("SA1-biotinylated (VHH, labeled with NHS-PEG4-Biotin at a 5/1 molar ratio of biotin/VHH; labelled residues not determined, also called biotinylated SA1) VHH: QVQLQESGGGLVQAGGSLRLSCAASGRNISEYVMGWFRQAPGKEREFVAAISWSAGNIYYADSVKGRFTISRDNAKNTVHLQMNTLRPEDTAVYYCAAGRYSAWYVAAYEYDYWGQGTQVTVSS", 1.97),
    ("SA1 VHH (VHH, From WO2014/037419; made in E. coli WK6 periplasm; also called non-mutated SA1; original SA1 VHH) VHH: QVQLQESGGGLVQAGGSLRLSCAASGRNISEYVMGWFRQAPGKEREFVAAISWSAGNIYYADSVKGRFTISRDNAKNTVHLQMNTLRPEDTAVYYCAAGRYSAWYVAAYEYDYWGQGTQVTVSS", 1.15),
]

Moving on to the next binder.
Query string: Fill in the blank: the reported Kd of SA1_S30K-biotinylated (VHH, labeled with NHS-PEG4-Biotin at a 5/1 molar ratio of biotin/VHH; the filing says the higher signal is likely related to the additional lysine at position 30; labelled residues not determined, also called biotinylated SA1_S30K VHH) VHH: QVQLQESGGGLVQAGGSLRLSCAASGRNIKEYVMGWFRQAPGKEREFVAAISWSAGNIYYADSVKGRFTISRDNAKNTVHLQMNTLRPEDTAVYYCAAGRYSAWYVAAYEYDYWGQGTQVTVSS is ____.
Result string: 1.49
